Documented activation across a set of compounds
- system under test: Trace amine-associated receptor 1 (Homo sapiens) (UniProt Q96RJ0)
- Sequence (Q96RJ0 whole entry, looked up): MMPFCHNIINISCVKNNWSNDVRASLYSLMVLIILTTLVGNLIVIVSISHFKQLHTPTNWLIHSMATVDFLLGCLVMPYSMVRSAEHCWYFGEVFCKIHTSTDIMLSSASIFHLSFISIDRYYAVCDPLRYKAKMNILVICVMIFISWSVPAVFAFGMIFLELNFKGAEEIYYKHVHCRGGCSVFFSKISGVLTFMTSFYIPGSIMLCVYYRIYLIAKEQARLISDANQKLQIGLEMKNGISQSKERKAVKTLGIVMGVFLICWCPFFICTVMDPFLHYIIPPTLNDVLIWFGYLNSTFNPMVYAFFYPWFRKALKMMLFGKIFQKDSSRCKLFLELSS
- protocol summary: human TAAR1 agonists, primary screen, Fluo-8 calcium fluorescence, CHO RD-HGA16 cells (AID 624467)
- condition set: CHO RD-HGA16 TAAR1, Fluo-8 calcium fluorescence; at 3 µM; hits give high values
The campaign covered roughly 360,000 compounds. About 3,600 (1%) were called active. The entries come from a sample that favours actives as a whole.
parameter: activation (%)

                                    compound                         system_under_test   parameter  observed_result
 0  C[C@]12CCC3C(CC[C@H]4[C@H](O)[C@H](O)CC[C@]34C)C1CCC2=O (stereo not given in full)  Trace amine-associated receptor 1 (Homo sapiens) (UniProt Q96RJ0)  activation             4.54
 1  CCCCC(=O)N/N=C/c1c(O)n(CC)c(=S)n(CC)c1=O  Trace amine-associated receptor 1 (Homo sapiens) (UniProt Q96RJ0)  activation              115
 2   Cc1cc(N2CCNC[C@@H]2C)ccc1N1CC[C@H](O)C1  Trace amine-associated receptor 1 (Homo sapiens) (UniProt Q96RJ0)  activation             0.68
 3   CCCCCCN=C(CC)c1c(O)n(CCCC)c(=O)[nH]c1=O  Trace amine-associated receptor 1 (Homo sapiens) (UniProt Q96RJ0)  activation             18.9
 4            c1ccc(C(CN2CCCCC2)c2ccccc2)cc1  Trace amine-associated receptor 1 (Homo sapiens) (UniProt Q96RJ0)  activation             5.89
 5  S=C(NCCc1ccccc1)N1Cc2cc(N3CCOCC3)ccc2-n2nncc2C1  Trace amine-associated receptor 1 (Homo sapiens) (UniProt Q96RJ0)  activation             25.3
 6  CS(=O)(=O)N1CCC2CCNC2C1 (stereo not given)  Trace amine-associated receptor 1 (Homo sapiens) (UniProt Q96RJ0)  activation             2.13
 7  COc1cc(OC)cc(C(=O)NCCN2CCC3(CC2)C(=O)NCN3c2ccccc2)c1  Trace amine-associated receptor 1 (Homo sapiens) (UniProt Q96RJ0)  activation             0.43
 8                   c1ccc2sc(N3CCNCC3)nc2c1  Trace amine-associated receptor 1 (Homo sapiens) (UniProt Q96RJ0)  activation             10.3
 9  CC(CC(C#N)(c1ccccc1)c1ccccc1)N1CCCCC1 (stereo not given)  Trace amine-associated receptor 1 (Homo sapiens) (UniProt Q96RJ0)  activation             1.72
10      CC(Cc1ccccc1)NC=O (stereo not given)  Trace amine-associated receptor 1 (Homo sapiens) (UniProt Q96RJ0)  activation             68.4
11    COC(=O)COc1cc(C)cc2oc(=O)c3c(c12)CCCC3  Trace amine-associated receptor 1 (Homo sapiens) (UniProt Q96RJ0)  activation             15.7
12  OC(CNC1CCCCC1)c1ccccc1 (stereo not given)  Trace amine-associated receptor 1 (Homo sapiens) (UniProt Q96RJ0)  activation             0.51
13     COc1ccc(CNCCc2ccc3c(c2)OCO3)c(OC)c1OC  Trace amine-associated receptor 1 (Homo sapiens) (UniProt Q96RJ0)  activation             2.45
14  O=c1[nH]c(=O)n(CCc2ccccc2)c(O)c1/C=N/N1CCOCC1  Trace amine-associated receptor 1 (Homo sapiens) (UniProt Q96RJ0)  activation             7.45
15  Clc1ccc([C@@H]2CC3CCC2N3)cn1 (stereo not given in full)  Trace amine-associated receptor 1 (Homo sapiens) (UniProt Q96RJ0)  activation             0.89
16  COc1cccc(OC)c1C(=O)NC(=S)N1C[C@H]2C[C@H](C1)c1cccc(=O)n1C2  Trace amine-associated receptor 1 (Homo sapiens) (UniProt Q96RJ0)  activation             4.06
17  CCN(CC)C(=O)c1ccc(NC(=O)c2cc(-n3cnnc3)ccc2Cl)cc1  Trace amine-associated receptor 1 (Homo sapiens) (UniProt Q96RJ0)  activation              8.2
18  CC(Cc1ccccc1)NCCC(c1ccccc1)c1ccccc1 (stereo not given)  Trace amine-associated receptor 1 (Homo sapiens) (UniProt Q96RJ0)  activation             44.2
19  COc1ccc2c(c1)[C@@]13CCCCC1[C@@H](C2)NCC3 (stereo not given in full)  Trace amine-associated receptor 1 (Homo sapiens) (UniProt Q96RJ0)  activation             4.44
20  CC12CN3CC(C)(CN(C1)C3c1cccs1)C2 (stereo not given)  Trace amine-associated receptor 1 (Homo sapiens) (UniProt Q96RJ0)  activation             8.25
21         COc1ccc(-c2nn(CCC#N)cc2C(=O)O)cc1  Trace amine-associated receptor 1 (Homo sapiens) (UniProt Q96RJ0)  activation             0.78
22     CC(C)CN1Cc2cc(N3CCCCC3)ccc2-n2nncc2C1  Trace amine-associated receptor 1 (Homo sapiens) (UniProt Q96RJ0)  activation            -1.61
23  CCC(C)NC1(c2ccccc2)CCCCC1 (stereo not given)  Trace amine-associated receptor 1 (Homo sapiens) (UniProt Q96RJ0)  activation             3.45
24               c1cc2c(cc1CCNC1CCCCCC1)OCO2  Trace amine-associated receptor 1 (Homo sapiens) (UniProt Q96RJ0)  activation             4.36

Reference source: PubChem BioAssay AID624467
